Test system: Plasmodium berghei
Protocol Notes: Screen against P. berghei liver stage (PbLuc), transformed with Luciferase, at 10uM
Assay type: functional, HepG2
Experimental Context: tested at 10 uM
Among all 69,000 compounds or so, about 8,600 (12%) showed an effect of 50% or more. The list comes from a sample in which strong results are over-represented; it also holds close analogues and randomly drawn compounds.
Recorded INHIBITION for the following compounds

# Compound, INHIBITION
data = [
    ("CN1CCCC2(CCN(C(=O)Cn3ncc4ccccc4c3=O)C2)C1=O (stereo not drawn)", "21.2%"),
    ("COc1ccccc1Oc1cncc(C2CCCN(CC(N)=O)C2)n1 (stereo not drawn)", "20.8%"),
    ("c1cnc(Nc2cncc(C3CCCN(c4ncccn4)C3)n2)nc1 (stereo not drawn)", "-0.371%"),
    ("Cc1csc([C@@H]2C[C@@H]3CCN(Cc4cc(C)on4)C[C@H]3O2)n1", "26.7%"),
    ("Cc1csc(CN2CC[C@H]3C[C@H](c4nnc(C)[nH]4)O[C@@H]3C2)n1", "23.5%"),
    ("Cc1csc([C@H]2C[C@@H]3CCN(Cc4cc(C)on4)C[C@H]3O2)n1", "64.7%"),
    ("c1cnc(Nc2cncc(C3CCCN(c4cnccn4)C3)n2)nc1 (stereo not drawn)", "-6.3%"),
    ("CNC(=O)c1nnc2ccc(N3CCOCC3)cc2n1", "-12.2%"),
    ("NC(=O)CN1CCCC(c2cncc(Nc3ncccn3)n2)C1 (stereo not drawn)", "59%"),
    ("NCC(=O)N1CCCC(c2cncc(Nc3ncccn3)n2)C1 (stereo not drawn)", "51.7%"),
    ("COCCn1cnnc1C1CCCN(C(C)C)C1 (stereo not drawn)", "-16.5%"),
    ("CC(NCc1ccnc(OC2CCC2)c1)c1cnn(C)c1 (stereo not drawn)", "-4.92%"),
    ("Cc1cc(CN2CC[C@H]3C[C@H](C(=O)N(C)C)O[C@@H]3C2)no1", "23.9%"),
    ("Cc1oc(-c2ccsc2)nc1CC(=O)NCC(=O)Nc1cn[nH]c1", "33%"),
    ("CCC(=O)N1CCCC1c1nccnc1Nc1ncccn1 (stereo not drawn)", "42.6%"),
    ("CCc1ccc2nc(NCCCN(CCO)CCO)cc(C)c2c1", "42%"),
    ("Cc1csc(CN2CC[C@H]3C[C@@H](c4nnc(C)[nH]4)O[C@@H]3C2)n1", "72.3%"),
    ("Cc1nccc(CNc2cc(N3CCCC3CO)ncn2)n1 (stereo not drawn)", "-0.219%"),
    ("COc1ccccc1CNC(=O)CN(C)C(C)c1ccon1 (stereo not drawn)", "-13.6%"),
    ("Cc1csc([C@@H]2C[C@H]3CN(c4ncc(F)cn4)C[C@H]3O2)n1", "22.6%"),
    ("Cc1ccc(NC(=O)N2CCCC2)c(OCC2CCCO2)c1 (stereo not drawn)", "-8.11%"),
    ("CC(=O)NCC(=O)N1CCOCC(Cc2ccc3c(ccn3C)c2)C1 (stereo not drawn)", "-2.995%"),
    ("CN(Cc1cnn(C)c1)C(=O)NCc1ccc2c(c1)OCCO2", "-26.85%"),
]

---

Test system: Plasmodium berghei
Protocol Notes: Screen against P. berghei liver stage (PbLuc), transformed with Luciferase, at 10uM
Format: functional, HepG2
Experimental Context: tested at 10 uM
Among all 69,000 compounds or so, about 8,600 (12%) showed an effect of 50% or more. Shown is part of a subset that was picked to be rich in strong results.
// boundary case: INHIBITION equal to 30% maps to False; strictly smaller maps to True

# Compound, Group Label
measured = [
    ("CCCc1nn(Cc2csc(CC)n2)c(=O)o1", "False"),
    ("CCc1nc(Cn2nc(COC)oc2=O)cs1", "False"),
    ("COc1ccc2oc(C(C)NC(=O)NC3CCN(C)CC3)c(C)c2c1 (stereo unspecified)", "True"),
    ("CCn1cnnc1C1CCN(C(=O)c2ccc3c(c2)nnn3C)CC1", "True"),
    ("N#CC1(C(=O)N2C[C@@H]3CC[C@H]2CN(Cc2ccncc2)C3)CCOCC1", "True"),
]
